- System: apomorphine-induced stereotypy
- method-summary: Antagonism of apomorphine-induced stereotypy in rats
- Format: in vivo
- test-context: Rattus norvegicus, ip, 0.5 h; rats, i.p. dose 10 mg.kg^-1; apomorphine 1.5 mg.kg^-1 i.p.; 30 minutes; read-out: % ISS (inhibition (-) or potentiation (+) of the stereotypy score)
Where a name gives a salt, the structure may show the parent alone.
quantity: change in vivo at 10 mg/kg (%)
Numeric answer only, unit % assumed.

The cases that follow already have their change in vivo at 10 mg/kg on record.
>>> print(df.to_string())
                                   molecule               target_under_test  unit_descriptor  assay_value
0  O=C(O)CCCCCCNC1CCc2cc3c(cc2C1)OCC3 (racemic) [Example 12, hydrochloride]  apomorphine-induced stereotypy                %           19
1  O=C1CCCN1C1CCc2cc3c(cc2C1)OCC3 (racemic) [Example 37]  apomorphine-induced stereotypy                %           -6

Exam item: Would you mind telling me what change in vivo at 10 mg/kg value was observed for CC(CCCC(=O)O)NC1CCc2cc3c(cc2C1)OCC3 (racemic) [Example 27] ?
Marked response: -5

Exam item: Any idea what its change in vivo at 10 mg/kg is? The molecule is CC(CCCCCC(=O)O)NC1CCc2cc3c(cc2C1)OCC3 (racemic) [Example 31, hydrochloride]
Marked response: 5

* * *

Measured change in vivo at 20 mg/kg by item
- System: apomorphine-induced rearing-up
- method-summary: Antagonism of apomorphine-induced rearing-up behavior in mice
- Assay type: in vivo
- test-context: Mus musculus, ip; mice, i.p. dose 20 mg.kg^-1; apomorphine 0.75 mg.kg^-1 s.c.; read-out: % inhibition of rearing-up
Counter-ions that a name gives are not always drawn.
Numbers only here, please. The scale is %.

Use the examples below as a reference point.
                                   compound                    quantity  assay_value
0  CC(CCCCCC(=O)O)NC1CCc2cc3c(cc2C1)OCC3 (racemic) [Example 31, hydrochloride]  change in vivo at 20 mg/kg            5
1  FC(F)(F)CNC1CCc2cc3c(cc2C1)OCC3 (racemic) [Example 35, hydrochloride]  change in vivo at 20 mg/kg          -38
2  CC(CCCC(=O)O)NC1CCc2cc3c(cc2C1)OCC3 (racemic) [Example 27]  change in vivo at 20 mg/kg          -63
3  OCCCCCCNC1CCc2cc3c(cc2C1)OCC3 (racemic) [Example 32, hydrochloride]  change in vivo at 20 mg/kg          -32

Would you kindly look at the next entry?
Exam item: Recorded change in vivo at 20 mg/kg of O=C(O)CCCCCCNC1CCc2cc3c(cc2C1)OCC3 (racemic) [Example 12, hydrochloride] , please.
Marked response: -20

* * *

- Tested on: apomorphine-induced stereotypy
- method-summary: Antagonism of apomorphine-induced stereotypy in rats
- Assay type: in vivo
- test-context: Rattus norvegicus, ip, 0.5 h; rats, i.p. dose 10 mg.kg^-1; apomorphine 1.5 mg.kg^-1 i.p.; 30 minutes; read-out: % ISS (inhibition (-) or potentiation (+) of the stereotypy score)
- Procedure: The inhibitory activity of the compounds of the invention with respect to apomorphine- or amphetamine-induced stereotypy in rats was assessed using the scale of scoring of stereotyped movements described by Quinton R. M. and Halliwell G. in Nature (1963), 200, p. 178-179. Apomorphine or amphetamine was administered to the animals intraperitoneally at a dose of 1.5 mg.kg^-1. […]
Structures can show the parent of a compound that is named as a salt.
Measured change in vivo at 10 mg/kg values are reported for all entries that follow.

In [3]: df
Out[3]:
                                   compound                    quantity  assay_value
0  OCCCCCCNC1CCc2cc3c(cc2C1)OCC3 (racemic) [Example 32, hydrochloride]  change in vivo at 10 mg/kg          -3%
1  CC(CCCCC(=O)O)NC1CCc2cc3c(cc2C1)OCC3 (racemic) [Example 29, hydrochloride]  change in vivo at 10 mg/kg          11%

Exam item: Lab note: need change in vivo at 10 mg/kg for O=C(O)CCCCCNC1CCc2cc3c(cc2C1)OCC3 (racemic) [Example 25, hydrochloride] on apomorphine-induced stereotypy, anyone have it?
Marked response: 9%

* * *

- Tested on: aggression of isolated, bulbectomized rats
- method-summary: Antiaggressive effects: aggression of isolated, bulbectomized rats
- Assay type: in vivo
- test-context: i.p., 2.5 mg.kg^-1
Where a name gives a salt, the structure may show the parent alone.
quantity: % of rats rendered non-aggressive (%)
Just the number please, in %, no unit attached.

Examples with answers:
>>> df
                                   compound                           quantity  unit_descriptor  assay_value
0  NC1CCc2cc3c(cc2C1)OCC3 (racemic) [Example 2, hydrochloride]  % of rats rendered non-aggressive                %           50
1  CNC1CCc2cc3c(cc2C1)OCC3 (stereo not shown) [Example 38, hydrochloride]  % of rats rendered non-aggressive                %           37
2  CNC1CCc2cc3c(cc2C1)OCC3 (racemic) [Example 9, hydrochloride]  % of rats rendered non-aggressive                %           27

Exam item: Fill in: % of rats rendered non-aggressive of CN(C)C1CCc2cc3c(cc2C1)OCC3 (racemic) [Example 6, hydrochloride] is ___
Marked response: 30

* * *

- Test system: isolation-induced aggression
- method-summary: Antiaggressive effects: isolation-induced aggression in mice
- Type: in vivo
- test-context: isolated mice, i.p., 2.5 mg.kg^-1
- From the text: The antiaggressive effects of the compounds of the invention were investigated by two methods, one of them testing for an inhibition of aggressive behavior in peviously isolated mice (Yen C. Y., Stanger A. L., and Millman N, Arch. Int. Pharmacodyn. Therap. (1959), 123, p. 179-185), and the other in isolated and bulbectomized rats (Garattini S. and Sigg E. B. "Aggressive Behaviour" p. 47-55 Ed. Excerpta Medica Found., Amsterdam, 1969). (Tables IX and X, s=significant, p<0.05).
Structures can show the parent of a compound that is named as a salt.
quantity: % of pairs of mice showing no sign of fighting (%)
Entry rule: numbers only, all in %.

// below: answered compounds
>>> df
                                   compound  assay_value
0  NC1CCc2cc3c(cc2C1)OCC3 (racemic) [Example 2, hydrochloride]           40
1  CNC1CCc2cc3c(cc2C1)OCC3 (racemic) [Example 9, hydrochloride]           67
2  CNC1CCc2cc3c(cc2C1)OCC3 (stereo not shown) [Example 39, hydrochloride]           70

Exam item: Name the recorded % of pairs of mice showing no sign of fighting for CN(C)C1CCc2cc3c(cc2C1)OCC3 (racemic) [Example 6, hydrochloride] .
Marked response: 40

* * *

- Tested on: isolation-induced aggression
- method-summary: Antiaggressive effects: isolation-induced aggression in mice
- Format: in vivo
- test-context: isolated mice, i.p., 5 mg.kg^-1
Where a name gives a salt, the structure may show the parent alone.
Use 10% as the dividing line for % of pairs of mice showing no sign of fighting, with the line itself on the 1 side and lower values as -1.

Illustrative cases are given below, each with its answer.
>>> df
                                   compound             target_under_test  assigned_category
0  NC1CCc2cc3c(cc2C1)OCC3 (racemic) [Example 2, hydrochloride]  isolation-induced aggression                  1
1  CN(C)C1CCc2cc3c(cc2C1)OCC3 (racemic) [Example 6, hydrochloride]  isolation-induced aggression                  1
2  CN(CC1CCCCC1)C1CCc2cc3c(cc2C1)OCC3 (racemic) [Example 10, hydrochloride]  isolation-induced aggression                 -1

Now let's try a different one.
Exam item: State whether the measured % of pairs of mice showing no sign of fighting reaches 10%, counting equality as reaching it, for CNC1CCc2cc3c(cc2C1)OCC3 (racemic) [Example 9, hydrochloride]
Marked response: 1
